molecular target: CDK12 (Homo sapiens, UniProt Q9NYV4); test: Western blot degradation of CDK12 (Example 2); format: cell-based; set-up: degradation of CDK12/13 protein in leukemia cells KASUMI-1, MV4-11, and Jurkat; endogenous in cells; details: DC50 classes; cell line not given; read-out: CDK12 degradation Activity
Sequence (Q9NYV4 whole entry): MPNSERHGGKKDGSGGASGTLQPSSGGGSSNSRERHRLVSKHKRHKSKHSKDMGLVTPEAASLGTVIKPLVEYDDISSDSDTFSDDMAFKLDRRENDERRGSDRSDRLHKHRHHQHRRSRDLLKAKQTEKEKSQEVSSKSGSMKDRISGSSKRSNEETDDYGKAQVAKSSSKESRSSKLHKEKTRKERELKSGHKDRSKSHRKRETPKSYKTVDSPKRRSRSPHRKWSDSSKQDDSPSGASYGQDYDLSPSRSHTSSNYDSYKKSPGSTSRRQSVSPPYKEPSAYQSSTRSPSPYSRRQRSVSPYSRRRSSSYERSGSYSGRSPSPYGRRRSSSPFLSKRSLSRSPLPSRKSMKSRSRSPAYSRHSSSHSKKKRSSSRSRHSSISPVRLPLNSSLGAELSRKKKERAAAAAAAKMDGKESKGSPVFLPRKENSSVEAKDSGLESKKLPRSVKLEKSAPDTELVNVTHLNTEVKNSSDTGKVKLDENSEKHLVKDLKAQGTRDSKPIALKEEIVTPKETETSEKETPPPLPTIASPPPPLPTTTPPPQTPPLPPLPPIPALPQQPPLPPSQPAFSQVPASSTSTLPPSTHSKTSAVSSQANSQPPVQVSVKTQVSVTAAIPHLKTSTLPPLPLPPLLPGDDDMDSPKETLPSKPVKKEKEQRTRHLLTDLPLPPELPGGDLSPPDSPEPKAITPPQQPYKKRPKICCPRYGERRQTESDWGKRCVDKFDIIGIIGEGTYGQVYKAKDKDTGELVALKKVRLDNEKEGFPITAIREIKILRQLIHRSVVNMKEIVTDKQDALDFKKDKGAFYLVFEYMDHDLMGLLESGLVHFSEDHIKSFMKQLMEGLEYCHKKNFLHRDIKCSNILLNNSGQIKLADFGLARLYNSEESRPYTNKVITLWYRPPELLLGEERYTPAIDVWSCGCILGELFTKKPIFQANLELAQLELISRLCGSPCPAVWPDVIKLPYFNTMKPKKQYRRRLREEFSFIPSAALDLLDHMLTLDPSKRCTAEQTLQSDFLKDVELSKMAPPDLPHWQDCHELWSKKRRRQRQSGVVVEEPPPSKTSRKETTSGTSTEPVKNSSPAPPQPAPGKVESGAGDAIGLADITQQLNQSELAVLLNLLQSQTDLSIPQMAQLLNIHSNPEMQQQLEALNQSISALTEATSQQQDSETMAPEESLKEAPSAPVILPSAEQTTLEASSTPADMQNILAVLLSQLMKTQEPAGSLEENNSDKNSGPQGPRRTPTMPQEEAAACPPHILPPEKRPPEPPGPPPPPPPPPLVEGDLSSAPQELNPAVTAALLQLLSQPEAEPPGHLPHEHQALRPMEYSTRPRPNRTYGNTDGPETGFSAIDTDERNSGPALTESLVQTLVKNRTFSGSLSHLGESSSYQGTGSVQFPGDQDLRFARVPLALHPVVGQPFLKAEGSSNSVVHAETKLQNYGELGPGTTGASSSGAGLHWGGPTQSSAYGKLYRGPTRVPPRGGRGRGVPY
Sequence (O75909 whole entry partner): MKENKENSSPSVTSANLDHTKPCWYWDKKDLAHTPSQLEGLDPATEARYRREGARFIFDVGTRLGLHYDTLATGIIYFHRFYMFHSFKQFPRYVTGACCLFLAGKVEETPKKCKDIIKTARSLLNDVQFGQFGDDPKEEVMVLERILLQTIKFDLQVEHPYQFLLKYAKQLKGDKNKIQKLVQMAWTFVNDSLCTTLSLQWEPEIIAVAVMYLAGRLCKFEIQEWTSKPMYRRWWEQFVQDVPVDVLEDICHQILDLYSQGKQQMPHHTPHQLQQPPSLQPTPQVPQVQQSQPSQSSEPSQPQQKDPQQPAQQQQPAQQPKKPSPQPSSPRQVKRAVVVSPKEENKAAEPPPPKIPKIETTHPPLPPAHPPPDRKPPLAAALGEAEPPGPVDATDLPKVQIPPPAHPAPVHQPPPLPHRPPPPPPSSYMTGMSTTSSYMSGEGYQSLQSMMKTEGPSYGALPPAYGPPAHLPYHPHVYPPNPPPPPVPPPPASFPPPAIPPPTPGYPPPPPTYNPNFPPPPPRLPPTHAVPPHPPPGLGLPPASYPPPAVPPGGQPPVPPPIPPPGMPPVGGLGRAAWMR
resultType: DC50

Reference set (3 entries):
>>> valueobserved("Cc1ncsc1-c1ccc([C@H](C)NC(=O)[C@@H]2C[C@@H](O)CN2C(=O)[C@@H](NC(=O)N2CCN(c3ccc(N(C(=O)NCc4ccccc4)[C@H]4CC[C@H](Nc5ncc6ccccc6n5)CC4)cc3)CC2)C(C)(C)C)cc1")
"3 to 10 µM"
>>> valueobserved("Cc1ncsc1-c1ccc([C@H](C)NC(=O)[C@@H]2C[C@@H](O)CN2C(=O)[C@@H](NC(=O)CC2CN(c3ccc(-c4ccc(N(C(=O)NCc5ccccc5)[C@H]5CC[C@H](Nc6ccc(C#N)cn6)CC5)cc4)cn3)C2)C(C)(C)C)cc1")
"3 to 10 µM"
>>> valueobserved("Cc1ncsc1-c1ccc([C@H](C)NC(=O)[C@@H]2C[C@@H](O)CN2C(=O)[C@@H](NC(=O)CN2CCN(c3ccc(-c4ccc5c(c4)CCCN(Cc4ccccc4)C(=O)N5[C@H]4CC[C@H](Nc5ccc(C#N)cn5)CC4)cn3)CC2)C(C)(C)C)cc1")
"< 0.1 µM"

We now examine a further molecule.
What value of DC50 has been reported for the following molecule? N#Cc1ccc(N[C@H]2CC[C@H](N(C(=O)NCc3ccccc3)c3ccc(N4CCN(CCOCCOCCOCCOCCNc5cccc6c5C(=O)N(C5CCC(=O)NC5=O)C6=O)CC4)cc3)CC2)nc1 (stereo partly shown) 1 to 3 µM
